Below is a list of entries, each paired with its recorded IC50 value.
Target entity: human recombinant COX-2 (Homo sapiens)
Sequence (P35354 18-604): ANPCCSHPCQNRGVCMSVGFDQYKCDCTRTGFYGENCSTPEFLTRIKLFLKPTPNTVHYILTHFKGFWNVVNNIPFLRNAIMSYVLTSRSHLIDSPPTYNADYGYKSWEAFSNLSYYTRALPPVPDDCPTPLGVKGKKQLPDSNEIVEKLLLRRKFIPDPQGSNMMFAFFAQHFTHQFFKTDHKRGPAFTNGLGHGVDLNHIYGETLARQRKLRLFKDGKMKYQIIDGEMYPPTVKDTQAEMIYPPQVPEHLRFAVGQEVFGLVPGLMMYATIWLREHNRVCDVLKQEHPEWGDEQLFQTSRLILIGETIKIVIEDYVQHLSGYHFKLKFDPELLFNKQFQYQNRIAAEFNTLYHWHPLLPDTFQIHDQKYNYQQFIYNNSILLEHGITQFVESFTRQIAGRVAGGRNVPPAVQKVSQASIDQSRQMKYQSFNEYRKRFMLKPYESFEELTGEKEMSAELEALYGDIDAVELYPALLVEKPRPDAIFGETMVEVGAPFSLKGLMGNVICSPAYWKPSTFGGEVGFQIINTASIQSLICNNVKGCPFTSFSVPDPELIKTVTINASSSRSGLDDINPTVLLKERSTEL
Method summary: COX-2 enzyme activity (PGE-2 formation from arachidonic acid)
Run conditions: 2 µM arachidonic acid, mean ± sd, read-out: IC50 inhibition of COX-2 enzyme activity
Protocol: Serial dilutions of 1–3 were prepared in DMSO. Six concentrations were tested from 0.1 µM to 100 µM for imbricatin (1), from 0.03 to 100 µM for methoxycoelonin (2) and from 0.3 µM to 100 µM for gigantol (3). […] Following incubation, the reaction was stopped by the addition of 1 M HCl then 1 M Tris/HCl (pH 8.0) followed by cooling to 4°C. The amount of PGE-2 present in the reaction mixture was quantified using an EIA detection kit (Cayman Chemical). […]
Give just the number in µM; leave the unit off.

COc1cc2c(cc1O)CCc1cc(O)cc(OC)c1-2 [Methoxycoelonin (2), Methoxycoelonin] :: 5.8

Input line: Param item = COc1c(O)cc2c3c1COc1cc(O)cc(c1-3)CC2 [Imbricatin (1), Imbricatin] ; retrieve measured IC50.
Output line: 12

----------
Method summary: •OH radical scavenging (luminol chemiluminescence)
Run conditions: mean ± sd
Property label: IC50 (µM)
Give just the number in µM; leave the unit off.

For orientation, consider the following solved cases.
COc1cc(O)cc(CCc2ccc(O)c(OC)c2)c1 :: 0.157
O=c1c(O)c(-c2ccc(O)c(O)c2)oc2cc(O)cc(O)c12 [Quercetin, reference compound] :: 0.045
COc1c(O)cc2c3c1COc1cc(O)cc(c1-3)CC2 :: 0.034
Oc1cc2c3c(c1)COc1cc(O)cc(c1-3)CC2 :: 0.076

Input line: Param item = COc1cc2c(cc1O)CCc1cc(O)cc(OC)c1-2 ; retrieve measured IC50.
Output line: 0.035
